# %Inh per entry
# Test system: JAK2(JH1domain-catalytic)
# protocol_conditions: concentration: 1 μM, replicates: in singlicate; n = 1
Kindly provide the numeric value in % only, without the unit symbol.

Completed entries (count: 3):
- compound: "Cl.Cl.c1ccc(-c2cc3ccncc3cc2OC2CCNCC2)cc1"
  %Inh / %: 8
- compound: "COC(=O)c1cccc(NC(=O)NCCNc2ccnc(Nc3ccc(F)cc3)n2)c1"
  %Inh / %: 1
- compound: "CN1c2ccc(-c3ccc(C(=O)NCCO)cc3)cc2-c2[nH]ncc2S1(=O)=O"
  %Inh / %: 13

# returns recorded %Inh (system: JAK2(JH1domain-catalytic)) for `CC(C)(C)c1ccc(-n2cnc3c(N)ncnc32)cc1`
24

Tell me reported %Inh for `NC(=O)c1sc(-n2cnc3ccccc32)cc1OCc1ccccc1F` , tested with JAK2(JH1domain-catalytic).
21

Which measured %Inh belongs to `CC(=O)Nc1n[nH]c2ncc(-c3ccccc3)cc12` , tested on JAK2(JH1domain-catalytic)?;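 note: KINOMEscan kinase panel screen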
15

Enter reported %Inh observed with JAK2(JH1domain-catalytic) for `CSc1nn2c(=O)cc(N3CCOCC3)nc2n1Cc1cccc(Cl)c1Cl`
18
